Below, each of the variants is paired with its reported self-cleavage value.
B1: OR4K15 (parent)
chain: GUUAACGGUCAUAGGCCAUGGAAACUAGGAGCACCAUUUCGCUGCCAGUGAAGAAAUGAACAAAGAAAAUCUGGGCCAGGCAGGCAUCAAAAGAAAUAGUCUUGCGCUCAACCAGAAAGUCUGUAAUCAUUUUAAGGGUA

Variants of: B1
assay.text: self-cleavage, relative activity (ratio to wild type); higher = more cleavage; in vitro, sequencing; the parent is a self-cleaving ribozyme
test.readout: self-cleavage

[[record]]
mutation_code = "U108C A126C"
test_readout = "self-cleavage"
readout_value = 0.01

[[record]]
mutation_code = "A23U A78G"
test_readout = "self-cleavage"
readout_value = 0.31

[[record]]
mutation_code = "C81A A82G"
test_readout = "self-cleavage"
readout_value = 0.13

[[record]]
mutation_code = "C112G U122A"
test_readout = "self-cleavage"
readout_value = 0.05

[[record]]
mutation_code = "G20U U70C"
test_readout = "self-cleavage"
readout_value = 0.6

[[record]]
mutation_code = "U39A A116G"
test_readout = "self-cleavage"
readout_value = 1.2

[[record]]
mutation_code = "A94U U130C"
test_readout = "self-cleavage"
readout_value = 1.01

[[record]]
mutation_code = "A54U U139A"
test_readout = "self-cleavage"
readout_value = 1.63

[[record]]
mutation_code = "A18U A55G"
test_readout = "self-cleavage"
readout_value = 1.85

[[record]]
mutation_code = "A54U A125G"
test_readout = "self-cleavage"
readout_value = 0.83

[[record]]
mutation_code = "G79C U120A"
test_readout = "self-cleavage"
readout_value = 0.04

[[record]]
mutation_code = "U12C A116G"
test_readout = "self-cleavage"
readout_value = 0.73

[[record]]
mutation_code = "U37C U43C"
test_readout = "self-cleavage"
readout_value = 2.16

[[record]]
mutation_code = "A18G A125G"
test_readout = "self-cleavage"
readout_value = 0.94

[[record]]
mutation_code = "U3C U38C"
test_readout = "self-cleavage"
readout_value = 0.98

[[record]]
mutation_code = "G75A A125G"
test_readout = "self-cleavage"
readout_value = 0.03

[[record]]
mutation_code = "C113U U132A"
test_readout = "self-cleavage"
readout_value = 0.06

[[record]]
mutation_code = "C34U A54G"
test_readout = "self-cleavage"
readout_value = 1.6

[[record]]
mutation_code = "A52G U139C"
test_readout = "self-cleavage"
readout_value = 2.03

[[record]]
mutation_code = "U38C U43C"
test_readout = "self-cleavage"
readout_value = 1.59

[[record]]
mutation_code = "A47U G99A"
test_readout = "self-cleavage"
readout_value = 0.23

[[record]]
mutation_code = "A68G A111G"
test_readout = "self-cleavage"
readout_value = 0.01

[[record]]
mutation_code = "U3A U102C"
test_readout = "self-cleavage"
readout_value = 1.99

[[record]]
mutation_code = "A63G U103A"
test_readout = "self-cleavage"
readout_value = 0.88

[[record]]
mutation_code = "A60U G106A"
test_readout = "self-cleavage"
readout_value = 0

[[record]]
mutation_code = "G99A G136A"
test_readout = "self-cleavage"
readout_value = 0.91

[[record]]
mutation_code = "U37C U100A"
test_readout = "self-cleavage"
readout_value = 0.52

[[record]]
mutation_code = "U9C A129U"
test_readout = "self-cleavage"
readout_value = 0.98

[[record]]
mutation_code = "A24C U133A"
test_readout = "self-cleavage"
readout_value = 1.76

[[record]]
mutation_code = "G14U A22G"
test_readout = "self-cleavage"
readout_value = 1.12

[[record]]
mutation_code = "G75U A117G"
test_readout = "self-cleavage"
readout_value = 0.15

[[record]]
mutation_code = "A110G U139C"
test_readout = "self-cleavage"
readout_value = 0.17

[[record]]
mutation_code = "A82U A94C"
test_readout = "self-cleavage"
readout_value = 0.06

[[record]]
mutation_code = "A5G G137A"
test_readout = "self-cleavage"
readout_value = 0.6

[[record]]
mutation_code = "U37C U87A"
test_readout = "self-cleavage"
readout_value = 1.49

